Hello, the source for this data is patent US10766952B2, in case you need it.

# TARGET: T1, rat α-CGRP (Rattus norvegicus, UniProt P01256)
# T1 construct: rat α (1-37); host or cells: synthetic peptide
# T1 sequence (P01256 83-119 limits assumed): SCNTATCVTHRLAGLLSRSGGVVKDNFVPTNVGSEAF
# MEASUREMENT_PROTOCOL: Biacore affinity of antibody G1 Fab and variants to rat α-CGRP
# Type: binding
# RECORDED_CONDITIONS: 37° C., Fab, screening mode unless underlined
# Procedure: Biacore assay for affinity determination. […] All Biacore assays were conducted in HBS-EP running buffer (10 mM HEPES pH 7.4, 150 mM NaCl, 3 mM EDTA, 0.005% v/v polysorbate P20). […] High-resolution analysis of binding interactions with extremely slow offrates. […] The association rate constant (kon) was determined by injecting a 2-fold titration series (in duplicate) spanning 550 nM-1 nM for 30 seconds at 100 μL/min and allowing only a 30 second dissociation phase. […]
RESULT_TYPE: α-rat koff (s⁻¹)
# output: bare number, implied unit s⁻¹

MOLECULE	MEASUREMENT_UNITS	α-rat koff
M69: G1 variant: L1 R28N,T30G; L2 L56I; H2 E54K,A57N,S58E; HC-FW3 L99T,A100V (antibody, V domains shown) VH: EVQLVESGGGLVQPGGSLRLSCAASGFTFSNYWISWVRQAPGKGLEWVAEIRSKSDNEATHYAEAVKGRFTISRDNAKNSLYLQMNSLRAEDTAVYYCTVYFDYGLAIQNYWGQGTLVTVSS VL: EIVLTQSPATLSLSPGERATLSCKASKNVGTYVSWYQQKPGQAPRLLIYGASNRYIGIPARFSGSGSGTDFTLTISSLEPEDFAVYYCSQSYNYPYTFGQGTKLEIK	s⁻¹	0.00181

Note to self: α-rat koff recorded for M47: G1 variant: L1 R28N; L2 G50A,L56T; H2 E54K,A57N,S58G; HC-FW3 L99T,A100V (antibody, V domains shown) VH: EVQLVESGGGLVQPGGSLRLSCAASGFTFSNYWISWVRQAPGKGLEWVAEIRSKSDNGATHYAEAVKGRFTISRDNAKNSLYLQMNSLRAEDTAVYYCTVYFDYGLAIQNYWGQGTLVTVSS VL: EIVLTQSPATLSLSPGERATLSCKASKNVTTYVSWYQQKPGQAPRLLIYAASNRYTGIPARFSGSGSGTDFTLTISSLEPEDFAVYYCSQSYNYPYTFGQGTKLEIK was 0.00823

Note to self: α-rat koff recorded for M31: G1 variant: L1 R28N,T30G; H2 E54K,A57G; HC-FW3 L99T,A100V (antibody, V domains shown) VH: EVQLVESGGGLVQPGGSLRLSCAASGFTFSNYWISWVRQAPGKGLEWVAEIRSKSDGSATHYAEAVKGRFTISRDNAKNSLYLQMNSLRAEDTAVYYCTVYFDYGLAIQNYWGQGTLVTVSS VL: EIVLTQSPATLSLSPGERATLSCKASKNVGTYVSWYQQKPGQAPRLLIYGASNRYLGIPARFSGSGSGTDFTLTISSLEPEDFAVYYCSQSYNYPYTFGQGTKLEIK was 0.00361
